These measurements were taken from PubChem BioAssay.

tested on: Chordin-like protein 2 (CHRDL2); experiment: compounds binding chordin-like 2 – biochemical, small-molecule microarray, 635 nm fluorescence, primary screen (AID 1126); conditions: fluorescence 635 nm, higher = more signal;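 also: printed compound slides probed with Chrdl2 protein at 4 µg/mL for 1 h at 4 C; score merges 667 nm emission intensity with signal to noise over three replicate slides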
Each item that follows carries a reported composite z-score.
Reply with the value as a number alone.

Solved entries (count: 5):
COc1ccc(C(=O)Nc2ccc(CN3C(=O)[C@@]4(O[C@@H](CCn5cc(CCO)nn5)[C@H]([Si](C)(C)c5ccc(OC)cc5)[C@H]4C)c4ccccc43)cc2)cc1 :: 0.919
Cc1ccc(S[C@]2(C(=O)NCCCN(C)C)CC(=O)N(C3Cc4ccccc4C3)[C@@H]2c2ccc(CO)cc2I)cc1 :: -0.745
CN(C)CCCC[C@@H]1NC(=O)[C@H]2C[C@@H](C(=O)O)[C@@H](c3ccc(O)cc3)N2C1=O :: 1.48
O=C1O[C@@H](c2ccccc2)[C@@H](c2ccccc2)N2[C@@H](c3ccc(OCCO)cc3)[C@]3(C(=O)Nc4ccc(C#CC5(O)CCCCCC5)cc43)[C@@H](C(=O)O)[C@H]12 :: -0.458
CCCCCC1=C2CNC(Cc3ccccc3)(C(=O)OC)C=C2C(C)C1=O (stereo unspecified) :: -1.52

Query compound follows.
Inquiry: Form field: reported composite z-score of C=CCOC(=O)[C@@H]1[C@H]2C(=O)O[C@H](c3ccccc3)[C@H](c3ccccc3)N2[C@H](c2ccc(OCCOC(=O)[C@H]3C[C@H]4C(=O)N5CCC[C@H]5C(=O)N4[C@H]3c3cccc(OCCO)c3)cc2)[C@@]12C(=O)Nc1ccc(I)cc12
Reply text: 1.02

###

biological target: Dihydroorotate dehydrogenase (quinone), mitochondrial (Plasmodium falciparum (isolate 3D7)) (UniProt Q08210); test: inhibition of P. falciparum DHODH – biochemical, C-terminal His tag, absorbance 600 nm, primary screen (AID 1175); settings: PfDHODH enzyme, DCIP absorbance 600 nm; higher = more signal, called active from +8 up or from −8 down;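 also: recombinant parasite enzyme with a five histidine tag at its C terminus; test concentration not given here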
Sequence (Q08210 whole entry, looked up): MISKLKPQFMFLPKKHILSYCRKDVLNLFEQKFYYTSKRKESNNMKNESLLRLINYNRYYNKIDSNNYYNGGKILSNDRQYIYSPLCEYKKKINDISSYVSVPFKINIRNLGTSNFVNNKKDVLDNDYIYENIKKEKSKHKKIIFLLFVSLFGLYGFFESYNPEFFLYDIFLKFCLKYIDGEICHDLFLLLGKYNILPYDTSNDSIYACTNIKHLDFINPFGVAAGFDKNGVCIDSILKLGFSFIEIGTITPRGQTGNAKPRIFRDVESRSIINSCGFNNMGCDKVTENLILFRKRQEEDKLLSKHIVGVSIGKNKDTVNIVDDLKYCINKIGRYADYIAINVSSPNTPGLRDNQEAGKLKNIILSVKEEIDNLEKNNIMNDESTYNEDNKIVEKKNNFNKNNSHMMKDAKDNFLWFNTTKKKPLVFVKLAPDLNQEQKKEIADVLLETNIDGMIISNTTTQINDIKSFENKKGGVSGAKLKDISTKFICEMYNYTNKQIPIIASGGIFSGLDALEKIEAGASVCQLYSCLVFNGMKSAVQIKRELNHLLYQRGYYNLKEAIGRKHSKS
observed-property: composite z-score
Reply with the value as a number alone.

Solved entries (count: 2):
COc1ccc([Si](C)(C)[C@@H]2[C@@H](CC(=O)N3Cc4ccccc4C[C@H]3CO)O[C@]3(C(=O)N(Cc4cccc(N5CCOC5=O)c4)c4ccccc43)[C@H]2C)cc1 :: 0.314
C=CCC(OC(C)=O)[C@@H]1[C@@H](N(Cc2cc3ccccc3o2)C(=O)c2cccc3ccccc23)c2cc(OCCCO)ccc2N1C(=O)c1ccc2ccccc2n1 (stereo partly drawn) :: 0.364

Query molecule follows.
Inquiry: Form field: reported composite z-score of CCOc1cc(C(O)C2C=CC3C(=O)N(c4ccccc4)C(=O)C3N2Nc2ccccc2F)ccc1O (stereo not drawn)
Reply text: 0.717

###

assay: FRG1 expression reporter modulators in myotubes – cell-based, C2C12 myotubes, firefly/Renilla luciferase, luminescence, FRG1 inhibition for FSHD, primary screen (AID 1084); conditions: FRG1 promoter luciferase, higher = more signal, called active from +8 up or from −8 down
observed-property: z-score
Reply with the value as a number alone.

COCCOC(=O)N1C(=O)[C@@]2(c3cc(C#CCCO)ccc31)[C@H](c1ccc(OCCO)cc1)N1[C@H](c3ccccc3)[C@H](c3ccccc3)OC(=O)[C@H]1[C@@H]2C(=O)N1CCCCCCC1 :: 0.278
CCC(CC)C(O)C1C=CC2C(=O)N(c3ccccc3)C(=O)C2N1Nc1ccccc1F (stereo not drawn) :: -0.556
O=C1N(CCS(=O)(=O)c2ccccc2)c2ccccc2C[C@]12N=C(c1ccc(OCCCO)cc1)O[C@@H]2c1ccccc1 :: -0.253
COC(=O)[C@@]1(Cc2ccc(OC)cc2)[C@H]2c3cc(C(=O)N4CCCC4)n(Cc4ccc(C(F)(F)F)nc4)c3C[C@H]2CN1C(=O)c1ccccc1 :: 0.491
CN1C(=O)C2C=CC(C(O)c3ccc(-c4ccccc4)s3)N(NC(=O)OC(C)(C)C)C2C1=O (stereo not drawn) :: 0.392
COc1cc(CO)cc(I)c1O[C@H]1C=C(C(=O)NCCO)C[C@@H]2O[C@H]12 :: -1.44
O=C1C[C@]2(c3ccc([N+](=O)[O-])cc3)C(=O)N(C3CC3)c3cc(CO)ccc3[C@H]2N1C1CCCCC1 :: 0.413

Query compound follows.
Inquiry: Form field: reported z-score of CN1C(=O)C2C(C1=O)C1C=C(c3ccc(CO)cc3)C2C(C2CC2)N1C (stereo not drawn)
Reply text: 0.0916

###

experiment: hepatitis C replication reporter changes, two-sided – Huh7 cells, luciferase reporter, HCV replication inhibitor project, primary screen (AID 1109); conditions: Huh7 HCV replicon luciferase reporter, 48 h; higher = more signal;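 also: huh7 hepatoma cells harbouring a luciferase neomycin HCV replicon reporter; luciferase luminescence as measure of HCV replicon replication; test concentration not given here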
observed-property: z-score

C=C(C)[C@@H]1CC=C(C(O)C2C=CC3C(=O)N(c4ccccc4)C(=O)C3N2Nc2ccc([N+](=O)[O-])cc2)CC1 (some centres undefined) :: -0.315
Cc1ccc(S[C@]2(C(=O)NCc3ccccc3)CC(=O)N(Cc3ccccc3C(F)(F)F)[C@@H]2c2ccc(CO)cc2)cc1 :: -1.46
[N-]=[N+]=Nc1ccccc1C[C@@]1(C(=O)NCC(O)CO)N=C(c2ccc(OCCCO)cc2)O[C@@H]1c1ccccc1 (some centres undefined) :: -0.688

Inquiry: Form field: reported z-score of CCCC=C(CCC)[C@@H](NC(=O)c1ccc(C(F)(F)F)cc1)c1ccc(C(F)(F)F)cc1
Reply text: -1.5

###

Each item that follows carries a reported composite z-score.
assay: probe aEGFR binding to arrayed compounds – biochemical, biotinylated probe, 635/667 nm fluorescence, primary screen (AID 1097); settings: small-molecule microarray, higher = more signal;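 also: probe is a biotinylated anti-EGFR antibody binding compounds printed on slides; score combines fluorescence near 667 nm and signal to noise of each spot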

Solved entries (count: 6):
CC(C)C[C@@H]1NC(=O)[C@@]23C(=O)N[C@@H](Cc4ccccc4)C2[C@H](C)[C@@]2(C)O[C@H]2C3/C=C/C/C=C\CNC(=O)CNC1=O (some centres not stated) :: -0.0812
NC(=O)N1C(=O)C2C(C1=O)C1C=C(CCCO)C2C(C2CC2)N1Cc1sc2ccccc2c1Cl (configuration not stated) :: -0.0697
C=CCC(OC(C)=O)[C@@H]1[C@@H](N(Cc2cccc3ccccc23)C(=O)Cc2ccc(OC)cc2)c2cc(OCCCO)ccc2N1C(=O)Cc1ccc2ccccc2c1 (some centres not stated) :: -0.0828
CCOC(=O)C[C@H]1[C@H](OC(=O)Cc2ccc3c(c2)OCO3)[C@@H](NC(=O)Cc2ccc(OC)cc2)c2cc(OCCCO)ccc2N1C(=O)Cc1ccc(OC)cc1 :: -0.157
CC(C)NC(=O)[C@@H]1c2ccccc2C(=O)N(Cc2ccc(OC(F)(F)F)cc2)[C@H]1c1ccc(CO)cc1 :: 0.587
COc1ccccc1CN1C(=O)c2ccccc2[C@](Cc2ccccc2I)(C(=O)NCC(C)C)[C@@H]1c1ccc(CO)cc1 :: -0.0721

Query compound follows.
Inquiry: Form field: reported composite z-score of CCCNC(=O)[C@@]1(Sc2ccc(C)cc2)CC(=O)N(Cc2ccccc2Cl)[C@@H]1c1ccc(CO)cc1I
Reply text: -0.267

###

test system: Human papillomavirus type 1a protein E7 (residues 44-93); test: small molecules binding HPV E7 44-93 – biochemical, small-molecule microarray, residues 44-93, 635 nm fluorescence, primary screen (AID 1108); settings: fluorescence 635 nm, higher = more signal;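 also: E7 fragment applied at 1 µg/mL in TBST for 1 h at 4 C; score combines spot fluorescence with its signal to noise ratio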
observed-property: composite z-score

Inquiry: Form field: reported composite z-score of CCOC(=O)C[C@H]1[C@H](OC(=O)c2ccccc2-c2ccccc2)[C@@H](NC(=O)C2CCCCC2)c2cc(OCCCO)ccc2N1C(=O)c1ccc2ccccc2n1
Reply text: 1.31

Inquiry: Form field: reported composite z-score of Cc1ccc(S[C@]2(C(=O)NCc3ccccc3)CC(=O)N(Cc3ccccc3C(F)(F)F)[C@@H]2c2ccc(CO)cc2)cc1
Reply text: -0.0905

Inquiry: Form field: reported composite z-score of C=CCC(OC(C)=O)[C@@H]1[C@@H](N(Cc2ccc(-c3cccc(C(F)(F)F)c3)o2)C(=O)Cc2ccc(F)cc2)c2cc(OCCCO)ccc2N1C(=O)Cc1ccc2ccccc2c1 (some centres undefined)
Reply text: -0.97

Inquiry: Form field: reported composite z-score of COC(=O)[C@@]1(Cc2ccccc2)[C@H]2c3cc(C(=O)N(C)C)n(Cc4ccc(S(C)(=O)=O)cc4)c3C[C@H]2CN1C(=O)c1ccccc1
Reply text: -1.1

Inquiry: Form field: reported composite z-score of COc1ccc([Si](C)(C)[C@H]2[C@H](CC(=O)N3Cc4ccccc4C[C@H]3CO)O[C@@]3(C(=O)N(C)c4ccccc43)[C@@H]2C)cc1
Reply text: 1.42

Inquiry: Form field: reported composite z-score of COC(=O)C(CC#Cc1ccc2c(c1)[C@]1(C(=O)N2)[C@H](c2ccc(OCCO)cc2)N2[C@H](c3ccccc3)[C@H](c3ccccc3)OC(=O)[C@H]2[C@@H]1C(=O)N1CCCCCCC1)C(=O)OC
Reply text: 1.32

Inquiry: Form field: reported composite z-score of O=C(NCC(O)CO)[C@@]1(CCS(=O)(=O)c2ccccc2)N=C(c2ccc(OCCCO)cc2)O[C@H]1c1ccccc1 (some centres undefined)
Reply text: 1.47
